Tested on: human GlyR α1 subunit P230 (M1) substituted with TFP
Stated conditions: Table 2, nonsense suppression, n = 4
Property label: EC50 (µM)
Write down the numeric answer in µM and omit the unit.

IN: Could you tell me which EC50 is on file for "NCC(=O)O" ?
OUT: 125

###

Measured target: human GlyR α1 subunit P146 (CysL) substituted with 2MeP (Homo sapiens, UniProt P23415, P174X)
Sequence (P23415 29-457 P174X): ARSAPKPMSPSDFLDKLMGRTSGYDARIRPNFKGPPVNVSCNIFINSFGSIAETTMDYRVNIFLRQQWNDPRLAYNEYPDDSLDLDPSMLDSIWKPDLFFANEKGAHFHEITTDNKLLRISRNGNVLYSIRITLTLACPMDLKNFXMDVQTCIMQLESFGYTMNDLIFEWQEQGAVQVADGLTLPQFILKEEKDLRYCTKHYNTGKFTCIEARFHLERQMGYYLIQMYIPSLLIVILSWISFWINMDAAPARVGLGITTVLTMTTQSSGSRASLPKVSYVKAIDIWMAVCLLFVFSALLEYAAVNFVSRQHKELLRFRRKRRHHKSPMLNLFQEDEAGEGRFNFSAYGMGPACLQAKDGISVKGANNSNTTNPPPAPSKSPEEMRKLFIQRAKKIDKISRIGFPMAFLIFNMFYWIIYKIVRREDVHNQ
Method: TEVC, oocytes, nonsense suppression, P146 2MeP
Assay type: cell-based
Stated conditions: EC50, Table 3, nonsense suppression, n = 3
Property label: pEC50
Just the number, please; pEC50 means minus log10 of the concentration in mol/L.

IN: // pEC50 lookup, key: NCCS(=O)(=O)O [Tau, taurine]
OUT: 2.50

###

Measured target: human GlyR α1 subunit P146 (CysL) substituted with Pip (Homo sapiens, UniProt P23415, P174X)
Method: TEVC, oocytes, nonsense suppression, P146 Pip
Format: cell-based
Stated conditions: pEC50, Table 3, nonsense suppression, n = 3
Property label: pEC50
# pEC50 is unitless: minus log10 of the molar concentration; print number only

IN: What does the data say about its pEC50? Entry: "NCCS(=O)(=O)O"
OUT: 3.12

###

Measured target: human GlyR α1 subunit P146A (Homo sapiens, UniProt P23415, P174A)
Construct: expressed in transfected cells; host or cells: Xenopus laevis oocytes injected with receptor mRNA
Method: Two-electrode voltage clamp of Xenopus oocytes expressing P146A GlyR
Type: cell-based
Stated conditions: Table 1, −60 mV, n = 5, read-out: EC50
Property label: EC50 (µM)
Reply with just the number (in µM).

IN: Item NCCS(=O)(=O)O [Tau, taurine] has what recorded EC50?
OUT: 1410

###

Test system: human GlyR α1 subunit P96 (loopA) substituted with 2MeP
Stated conditions: Table 2; P96 2MeP; nonsense suppression; n = 4
Property label: pEC50
Scale note: pEC50 = -log10(concentration in M).

IN: // pEC50 lookup, key: "NCC(=O)O"
OUT: 3.60

###

Measured target: human GlyR α1 subunit P30A (Homo sapiens, UniProt P23415, P58A)
Sequence (P23415 29-457 P58A): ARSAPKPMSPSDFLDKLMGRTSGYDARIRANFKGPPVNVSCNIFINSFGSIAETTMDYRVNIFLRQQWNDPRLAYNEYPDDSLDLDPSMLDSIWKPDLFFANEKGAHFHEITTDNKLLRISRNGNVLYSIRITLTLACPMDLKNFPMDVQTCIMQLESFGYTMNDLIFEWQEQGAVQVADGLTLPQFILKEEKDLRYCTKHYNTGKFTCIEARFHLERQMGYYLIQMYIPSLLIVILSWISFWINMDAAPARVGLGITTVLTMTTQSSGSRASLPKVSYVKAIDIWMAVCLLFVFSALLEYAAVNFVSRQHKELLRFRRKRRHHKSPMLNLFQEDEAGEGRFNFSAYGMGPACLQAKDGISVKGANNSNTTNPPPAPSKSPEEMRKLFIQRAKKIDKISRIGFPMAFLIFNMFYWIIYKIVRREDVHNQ
Method: Two-electrode voltage clamp of Xenopus oocytes expressing P30A GlyR
Stated conditions: n = 5
Property label: EC50 (µM)
Kindly provide the numeric value in µM only, without the unit symbol.

IN: So what's the measured EC50 for this one? "NCCS(=O)(=O)O"
OUT: 1230
